Test system: JJN-3 (NIK translocated) multiple myeloma cells
Experiment Notes: Antiproliferative activity on JJN-3 multiple myeloma cells (CellTiter-Glo, 96 hr), Biological Assay C
Type: cell-based, human
Condition Parameters: Homo sapiens, JJN-3, 96 h, JJN-3 (NIK translocated) cells, averaged values, read-out: JJN-3 Proliferation inhibition (IC50 (nM))
Parameter: IC50

Compound: COc1cc(C(=O)N2CC3(CCNCC3)C2)c(Cl)cc1Nc1nccc(-c2cc(C#N)c3c(c2)C(C)(C)CN3)n1
Experimental System: JJN-3 (NIK translocated) multiple myeloma cells
Reported Value: 19 nM

Compound: Cc1cc(P(C)(C)=O)c(Cl)cc1Nc1nccc(-c2cc(C#N)c3c(c2)[C@@](C)(CO)CN3)n1
Experimental System: JJN-3 (NIK translocated) multiple myeloma cells
Reported Value: 63 nM

Compound: CN1CCC(Oc2ccc(Nc3nccc(-c4cc(C#N)c5c(c4)C(C)(CO)CN5)n3)cc2C(F)(F)F)CC1 (stereo not shown)
Experimental System: JJN-3 (NIK translocated) multiple myeloma cells
Reported Value: 9 nM

Compound: CC1(C)CNc2c(C#N)cc(-c3ccnc(Nc4ccccc4C(=O)N4CCC(O)C4)n3)cc21 (stereo not shown)
Experimental System: JJN-3 (NIK translocated) multiple myeloma cells
Reported Value: 3470 nM

----------
Experimental System: recombinant human NF-kappaB-inducing kinase (NIK/MAP3K14) (Homo sapiens, UniProt Q99558)
Sequence (Q99558 whole entry): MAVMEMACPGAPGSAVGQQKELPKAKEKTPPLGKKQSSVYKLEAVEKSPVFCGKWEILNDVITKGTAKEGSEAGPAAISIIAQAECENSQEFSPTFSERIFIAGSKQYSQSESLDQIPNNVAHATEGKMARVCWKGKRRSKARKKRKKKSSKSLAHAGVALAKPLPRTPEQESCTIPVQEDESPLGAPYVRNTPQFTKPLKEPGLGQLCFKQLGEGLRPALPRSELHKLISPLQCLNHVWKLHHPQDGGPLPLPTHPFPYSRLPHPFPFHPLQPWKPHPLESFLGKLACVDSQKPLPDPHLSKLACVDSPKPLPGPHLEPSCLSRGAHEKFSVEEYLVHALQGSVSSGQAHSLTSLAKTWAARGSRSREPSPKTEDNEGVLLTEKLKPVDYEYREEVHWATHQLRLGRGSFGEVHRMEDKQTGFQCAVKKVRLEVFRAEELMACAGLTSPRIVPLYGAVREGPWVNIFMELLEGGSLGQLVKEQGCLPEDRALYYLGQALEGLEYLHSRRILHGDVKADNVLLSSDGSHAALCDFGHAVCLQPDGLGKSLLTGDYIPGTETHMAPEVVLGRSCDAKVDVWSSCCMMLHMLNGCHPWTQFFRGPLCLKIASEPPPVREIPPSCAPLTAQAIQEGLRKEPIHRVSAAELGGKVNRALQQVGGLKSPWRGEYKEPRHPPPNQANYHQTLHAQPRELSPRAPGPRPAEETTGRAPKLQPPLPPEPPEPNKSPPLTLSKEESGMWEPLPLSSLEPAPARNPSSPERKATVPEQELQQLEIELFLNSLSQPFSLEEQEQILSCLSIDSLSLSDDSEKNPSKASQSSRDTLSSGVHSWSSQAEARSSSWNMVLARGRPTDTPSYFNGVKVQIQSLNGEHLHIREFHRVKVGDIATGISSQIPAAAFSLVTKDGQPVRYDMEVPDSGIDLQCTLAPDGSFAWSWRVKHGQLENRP
Experiment Notes: Inhibition of auto-phosphorylation of recombinant human NIK/MAP3K14 activity (AlphaScreen), Biological Assay A
Assay type: biochemical
Condition Parameters: averaged values over all measurements on all batches
Protocol: Inhibition of Auto-Phosphorylation of Recombinant Human NF-kappaB-Inducing Kinase (NIK/MAP3K14) Activity (AlphaScreen®) NIK/MAP3K14 auto-phosphorylation activity was measured using the AlphaScreen® (αscreen) format (Perkin Elmer). All compounds tested were dissolved in dimethyl sulfoxide (DMSO) and further dilutions were made in assay buffer. […] Protein A Acceptor and Glutathione-Donor beads were added before reading using an EnVision® Multilabel Plate Reader (Perkin Elmer). […]
Friendly reminder: IC50 below 6 nM is t, at or above is f.

Molecule: CC1(C)CNc2c(C#N)cc(-c3ccnc(Nc4cc(Cl)ccc4OC4CCN(C5CC5)CC4)n3)cc21
Classification: f
--
Molecule: [2H]C([2H])(O)[C@@]1(C)CNc2c(C#N)cc(-c3ccnc(Nc4cc(C#N)ccc4C)n3)cc21
Classification: t
--
Molecule: CNCc1ccc(C)c(Nc2nccc(-c3cc(C#N)c4c(c3)[C@@](C)(CO)CN4)n2)c1
Classification: f
--
Molecule: CN1CCC(Oc2ccc(C#N)cc2Nc2nccc(-c3cc(C#N)c4c(c3)[C@@](C)(CO)CN4)n2)CC1
Classification: t
--
Molecule: CC1(C)CNc2c(C#N)cc(-c3ccnc(Nc4cc(Cl)ccc4S(C)(=O)=O)n3)cc21
Classification: f
--
Molecule: Cc1cc(F)c(C(=O)NC2CCN(C)C2)cc1Nc1nccc(-c2cc(C#N)c3c(c2)[C@@](C)(CO)CN3)n1 (single isomer, unassigned) [Compound 167]
Classification: f
--
Molecule: COc1cc(C(=O)N2CC3C(CO)C3C2)c(Cl)cc1Nc1nccc(-c2cc(C#N)c3c(c2)C(C)(C)CN3)n1 (stereo not drawn)
Classification: t
--
Molecule: CN1CC(F)C(Oc2ccc(C#N)cc2Nc2nccc(-c3cc(C#N)c4c(c3)[C@@](C)(CO)CN4)n2)C1 (stereo partly drawn) [Compound 232]
Classification: t
--
Molecule: COc1ccc(Cl)cc1Nc1ncc(F)c(-c2cc(C#N)c3c(c2)C(C)(CO)CN3)n1 (stereo not drawn)
Classification: f
--
Molecule: C[C@]1(CO)CNc2c(C#N)cc(-c3ccnc(Nc4cc(C#N)ccc4CO)n3)cc21
Classification: t
--
Molecule: COCc1cc(OC)c(Nc2nccc(-c3cc(C#N)c4c(c3)C(C)(C)CN4)n2)cc1Cl
Classification: f
--
Molecule: COC(=O)c1cc(OC)c(Nc2nccc(-c3cc(C#N)c4c(c3)C(C)(C)CN4)n2)cc1Cl
Classification: f
--
Molecule: C[C@]1(CO)CNc2c(C#N)cc(-c3ccnc(Nc4cc(C#N)c(C5CCOCC5)cc4OCC4CC4)n3)cc21
Classification: f
--
Molecule: COc1cc(N2CCC(O)C2)c(Cl)cc1Nc1nccc(-c2cc(C#N)c3c(c2)C(C)(C)CN3)n1 (stereo not drawn)
Classification: f
--
Molecule: CC1(CO)CNc2c(C#N)cc(-c3ccnc(Nc4cc(C(F)(F)F)ccc4OCCO)n3)cc21 (stereo not drawn)
Classification: f
